Molecular target: P-selectin (Homo sapiens, UniProt P16109)
Sequence (P16109 whole entry): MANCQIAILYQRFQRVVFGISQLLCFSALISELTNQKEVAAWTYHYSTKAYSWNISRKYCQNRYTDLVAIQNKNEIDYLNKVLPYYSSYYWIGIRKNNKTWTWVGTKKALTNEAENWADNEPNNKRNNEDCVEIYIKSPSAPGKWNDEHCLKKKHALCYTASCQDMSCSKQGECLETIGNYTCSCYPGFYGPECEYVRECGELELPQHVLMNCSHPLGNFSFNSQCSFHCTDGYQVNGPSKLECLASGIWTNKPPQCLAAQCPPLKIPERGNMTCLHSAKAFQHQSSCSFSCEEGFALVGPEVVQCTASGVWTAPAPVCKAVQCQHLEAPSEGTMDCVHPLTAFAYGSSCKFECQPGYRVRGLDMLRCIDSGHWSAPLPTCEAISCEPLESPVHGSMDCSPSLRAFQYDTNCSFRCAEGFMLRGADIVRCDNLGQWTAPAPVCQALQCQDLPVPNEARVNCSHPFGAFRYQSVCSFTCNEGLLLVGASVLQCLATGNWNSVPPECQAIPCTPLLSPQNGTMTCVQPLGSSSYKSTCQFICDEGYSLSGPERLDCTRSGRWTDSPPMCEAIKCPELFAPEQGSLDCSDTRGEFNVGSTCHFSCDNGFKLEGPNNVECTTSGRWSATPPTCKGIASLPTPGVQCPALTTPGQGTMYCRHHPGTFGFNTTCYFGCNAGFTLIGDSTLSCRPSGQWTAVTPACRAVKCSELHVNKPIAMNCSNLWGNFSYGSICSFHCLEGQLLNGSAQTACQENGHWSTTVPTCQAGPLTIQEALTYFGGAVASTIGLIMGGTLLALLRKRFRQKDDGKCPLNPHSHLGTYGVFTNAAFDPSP
Test: Antagonist activity at P-selectin (unknown origin) by surface plasmon resonance-based dynamic assay
pIC50: −log10 of the molar value.
Property measured: pIC50

I = COC(=O)[C@H](O[C@@H]1O[C@@H](C)[C@@H](O)[C@@H](O)[C@@H]1O)[C@@H](O[C@@H]1O[C@H](CO)[C@H](OC(=O)c2ccccc2)[C@H](O[C@H](Cc2ccccc2)C(=O)O)[C@H]1OC(=O)c1ccccc1)C(=O)OC(C)C
II = COC(=O)[C@H](O[C@@H]1O[C@@H](C)[C@@H](O)[C@@H](O)[C@@H]1O)[C@@H](O[C@@H]1O[C@H](CO)[C@H](O)[C@H](O[C@H](Cc2ccccc2)C(=O)O)[C@H]1OC(=O)c1ccccc1)C(=O)OC
Prompt line: Just curious, which one has the larger pIC50 reading, I or II ? Pick one; state its label.
Response line: I

Where these numbers come from: ChEMBL document CHEMBL3352221
